- test name: Solubility in PBS degradation media
- Type: physicochemical
- experimental setup: aqueous buffer
reported endpoint: solubility (mg/mL)
Your answer is read as mg/mL, so omit the unit and give the number.

The compound identified as COc1cc(C(=O)O)cc(OC)c1O registered its solubility at 56
